Each record here notes measured TGI.
# System: NCI-H522 lung
# Method notes: NCI tumour cell line growth inhibition, 48 h

* CSc1nc(CO)c(CO)n1C | > 100 µM
* c1ccncc1 | > 100 µM
* CCCC1CC(=O)NC(=O)C1C(=O)OC(C)(C)C (configuration not stated) | > 100 µM
* O=C(OCCCl)C1OC(n2cc(F)c(=O)[nH]c2=O)CC1O (configuration not stated) | > 100 µM
* C=C1C(=O)O[C@@H]2/C=C(\C)CC/C=C(\C)CC[C@@]12O | 1.38 µM

### Prompt So what does the record say about TGI for N#CC1=C2SCCN2C(=O)C(C#N)C12CCCCC2 (configuration not stated) ?
### Response > 100 µM

### Prompt TGI for `NC1CCCCC1N.O=C1C=C/C(=C(/c2ccc(O)c(Br)c2)c2ccccc2S(=O)(=O)[O-])C=C1Br.O=C1C=C/C(=C(/c2ccc(O)c(Br)c2)c2ccccc2S(=O)(=O)[O-])C=C1Br.[Pt+4]` ?
### Response 22.6 µM

### Prompt Need TGI of `CCn1c2ccccc2c(=O)c2c(OC)ccc(OC)c21` , thanks.
### Response > 93.8 µM

### Prompt So what does the record say about TGI for `Oc1[nH]c(=S)[nH]c1/C=C1/C(c2ccccc2)=Nc2ccccc21` ?
### Response 26.3 µM

### Prompt What does the data say about its TGI? Entry: N#CCC(=O)N/N=C1/C(=O)N(c2cc(Cl)ccc2Cl)C(=O)C(=O)C1c1nc2ccccc2s1 (configuration not stated)
### Response > 100 µM
